- TGT: MCH-1R (Homo sapiens)
- Sequence (Q99705 whole entry): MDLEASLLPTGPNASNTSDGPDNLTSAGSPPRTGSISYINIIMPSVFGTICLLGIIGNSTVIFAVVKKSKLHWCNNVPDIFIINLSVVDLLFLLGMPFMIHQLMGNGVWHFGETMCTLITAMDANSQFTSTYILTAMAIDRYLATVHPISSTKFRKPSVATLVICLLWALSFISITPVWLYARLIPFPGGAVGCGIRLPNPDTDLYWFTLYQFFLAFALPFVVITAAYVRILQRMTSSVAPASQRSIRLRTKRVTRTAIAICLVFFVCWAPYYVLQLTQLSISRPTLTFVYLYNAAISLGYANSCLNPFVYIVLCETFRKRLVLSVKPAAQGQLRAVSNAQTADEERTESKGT
- TEST_DESCRIPTION: Aequorin bioluminescence functional assay, 293AEQ17/MCH-1R cells
- Format: cell-based
- Parameters: expressed in transfected cells
- STATED_CONDITIONS: activity ratio
Residues, ends and D or L forms follow the SMILES beside them.
MEASUREMENT_NAME: Selectivity 2/1 (MCH-2R/MCH-1R EC50 activity ratio)
Could you keep your reply to the number by itself?

Request: // lookup Selectivity 2/1 (MCH-2R/MCH-1R EC50 activity ratio) for CSCC[C@@H]1NC(=O)[C@@H](NC(=O)[C@@H](CCCNC(=N)N)NC(C)=O)CSSC[C@@H](C(N)=O)NC(=O)[C@@H]2CCCN2C(=O)[C@H](CCCNC(=N)N)NC(=O)[C@H](Cc2ccc(O)cc2)NC(=O)[C@H](C(C)C)NC(=O)[C@H](CCCNC(=N)N)NC(=O)[C@H](CC(N)=O)NC(=O)[C@H](CC(C)C)NC1=O [SEQ. ID. NO. 29] (HELM PEPTIDE1{[ac].[dR].C.M.L.N.R.V.Y.R.P.C.[am]}$PEPTIDE1,PEPTIDE1,3:R3-12:R3$$$V2.0)
Result: 150
